# MEASUREMENT TARGET: c-Myc protein (Homo sapiens, UniProt P01106)
# Construct: endogenous in cells; host or cells: HL60 cells
# Sequence (P01106 whole entry): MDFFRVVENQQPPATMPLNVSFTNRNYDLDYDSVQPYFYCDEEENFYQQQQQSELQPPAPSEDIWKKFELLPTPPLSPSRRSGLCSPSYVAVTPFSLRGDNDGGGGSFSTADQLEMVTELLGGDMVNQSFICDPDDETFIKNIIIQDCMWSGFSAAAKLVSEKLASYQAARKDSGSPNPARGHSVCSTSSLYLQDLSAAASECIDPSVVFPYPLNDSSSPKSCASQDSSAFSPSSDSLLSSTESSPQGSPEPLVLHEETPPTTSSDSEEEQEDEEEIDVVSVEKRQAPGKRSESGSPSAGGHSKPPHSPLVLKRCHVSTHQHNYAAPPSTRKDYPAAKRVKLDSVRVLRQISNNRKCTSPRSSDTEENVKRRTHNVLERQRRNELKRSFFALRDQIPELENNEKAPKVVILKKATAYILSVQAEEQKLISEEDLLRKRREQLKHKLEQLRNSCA
# ASSAY DETAILS: Ability of compounds to degrade c-Myc protein in HL60 cells (ELISA)
# Assay type: cell-based
# CONDITION DESCRIPTION: HL-60, 1 μM compound, 24 h, read-out: HL60 cells Protein degradation rate (1 μM)
// reported inhibition at 1 µM for each item listed
VALUE TYPE: inhibition at 1 µM

| MOLECULE | MEASUREMENT TARGET | VAL |
| --- | --- | --- |
| CN(CCc1ccc(Cl)cc1Cl)Cc1ccc(CNC(=O)c2ccc3c(c2)C(=O)N(C2CCC(=O)NC2=O)C3=O)cc1 (stereo not shown) | c-Myc protein (Homo sapiens, UniProt P01106) | 60 to 90% |
| O=C(Cc1cccc2ccccc12)NCc1ccc(COCc2ccc3c(c2)C(=O)N(C2CCC(=O)NC2=O)C3=O)cc1 (stereo not shown) | c-Myc protein (Homo sapiens, UniProt P01106) | 60 to 90% |
| O=C(Cc1cccc2ccccc12)NCCCCCCCCCc1ccc2c(c1)C(=O)N(C1CCC(=O)NC1=O)C2=O (stereo not shown) | c-Myc protein (Homo sapiens, UniProt P01106) | 60 to 90% |
| O=C1CCC(N2C(=O)c3ccc(C(=O)NCCCCCCNC(=O)n4c5ccccc5c5ccccc54)cc3C2=O)C(=O)N1 (stereo not shown) | c-Myc protein (Homo sapiens, UniProt P01106) | 30 to 60% |
| O=C(Cc1cccc2ccccc12)NCc1ccc(CNC(=O)c2ccc3c(c2)C(=O)N(C2CCC(=O)NC2=O)C3=O)nc1 (stereo not shown) | c-Myc protein (Homo sapiens, UniProt P01106) | 10 to 30% |
| CN(CCc1ccc(Cl)cc1Cl)Cc1ccc(CNCc2ccc3c(c2)C(=O)N(C2CCC(=O)NC2=O)C3=O)cc1 (stereo not shown) | c-Myc protein (Homo sapiens, UniProt P01106) | 60 to 90% |
| N#CCCN(CCc1cccc2ccccc12)Cc1ccc(CNC(=O)c2ccc3c(c2)C(=O)N(C2CCC(=O)NC2=O)C3=O)cc1 (stereo not shown) | c-Myc protein (Homo sapiens, UniProt P01106) | 60 to 90% |
| COc1cc(CNC(=O)c2ccc3c(c2)C(=O)N(C2CCC(=O)NC2=O)C3=O)ccc1CNC(=O)Cn1c2ccccc2c2cccnc21 (stereo not shown) | c-Myc protein (Homo sapiens, UniProt P01106) | 60 to 90% |
| O=C1CCC(N2C(=O)c3ccc(C(=O)NCc4ccc(C5(NC(=O)Cc6cccc7ccccc67)CC5)cc4)cc3C2=O)C(=O)N1 (stereo not shown) | c-Myc protein (Homo sapiens, UniProt P01106) | 60 to 90% |
| O=C1CCC(N2C(=O)c3ccc(C(=O)NC[C@H]4CC[C@H](CNC(=O)Nc5cccc6cccnc56)CC4)cc3C2=O)C(=O)N1 (stereo partly shown) | c-Myc protein (Homo sapiens, UniProt P01106) | 60 to 90% |
| CC(C)(NC(=O)Cn1c2ccccc2c2cccnc21)c1ccc(CNC(=O)c2ccc3c(c2)C(=O)N(C2CCC(=O)NC2=O)C3=O)cc1 (stereo not shown) | c-Myc protein (Homo sapiens, UniProt P01106) | 60 to 90% |
| O=C1CCC(N2Cc3cc(NC(=O)C[C@H]4CC[C@H](NC(=O)NCc5cccc6ccccc56)CC4)ccc3C2=O)C(=O)N1 (stereo partly shown) | c-Myc protein (Homo sapiens, UniProt P01106) | 60 to 90% |
| O=C1CCC(N2C(=O)c3ccc(CCCCCCC(=O)N(Cc4ccccc4)Cc4ccccc4)cc3C2=O)C(=O)N1 (stereo not shown) | c-Myc protein (Homo sapiens, UniProt P01106) | 10 to 30% |
| O=C(Cc1cccc2ccccc12)NCc1ccc(C2(NC(=O)c3ccc4c(c3)C(=O)N(C3CCC(=O)NC3=O)C4=O)CC2)cc1 (stereo not shown) | c-Myc protein (Homo sapiens, UniProt P01106) | 60 to 90% |
| O=C1CCC(N2Cc3cc(C(=O)NCc4ccc(CNc5nccc(-c6cccc7ccccc67)n5)cc4)ccc3C2=O)C(=O)N1 (stereo not shown) | c-Myc protein (Homo sapiens, UniProt P01106) | 60 to 90% |
| O=C1CCC(N2C(=O)c3ccc(C(=O)NCc4ccc(CNCCn5c6ccccc6c6cccnc65)cc4)cc3C2=O)C(=O)N1 (stereo not shown) | c-Myc protein (Homo sapiens, UniProt P01106) | 60 to 90% |
| O=C(Cn1c2ccccc2c2cccnc21)NCc1ccc(CNC(=O)c2ccc3c(c2)CN([C@@H]2CCC(=O)NC2=O)C3=O)cc1 | c-Myc protein (Homo sapiens, UniProt P01106) | 60 to 90% |
| O=C(Cc1cccc2ccccc12)NCc1cnc(CNC(=O)c2ccc3c(c2)C(=O)N(C2CCC(=O)NC2=O)C3=O)s1 (stereo not shown) | c-Myc protein (Homo sapiens, UniProt P01106) | 10 to 30% |
| CN(CCc1nccc2ccccc12)Cc1ccc(CNC(=O)c2ccc3c(c2)C(=O)N(C2CCC(=O)NC2=O)C3=O)cc1 (stereo not shown) | c-Myc protein (Homo sapiens, UniProt P01106) | 60 to 90% |
| O=C(Cc1c(F)ccc2ccccc12)NCc1ccc(CNC(=O)c2ccc3c(c2)CN(C2CCC(=O)NC2=O)C3=O)cc1 (stereo not shown) | c-Myc protein (Homo sapiens, UniProt P01106) | 60 to 90% |
| O=C(Cc1cccc2ccccc12)NCc1ccc(CNCc2ccc3c(c2)C(=O)N(C2CCC(=O)NC2=O)C3=O)c(F)c1 (stereo not shown) | c-Myc protein (Homo sapiens, UniProt P01106) | 60 to 90% |
| O=C1CCC(N2C(=O)c3ccc(C(=O)NCc4ccc(COCCn5c6ccccc6c6cccnc65)cc4)cc3C2=O)C(=O)N1 (stereo not shown) | c-Myc protein (Homo sapiens, UniProt P01106) | 60 to 90% |
| O=C(Cn1c2ccccc2c2ccncc21)NCCCCCCNC(=O)c1ccc2c(c1)C(=O)N(C1CCC(=O)NC1=O)C2=O (stereo not shown) | c-Myc protein (Homo sapiens, UniProt P01106) | 30 to 60% |
| CC(=O)N(CCc1cccc2ccccc12)Cc1ccc(CNC(=O)c2ccc3c(c2)C(=O)N(C2CCC(=O)NC2=O)C3=O)cc1 (stereo not shown) | c-Myc protein (Homo sapiens, UniProt P01106) | 60 to 90% |
| CC(C)N(CCn1c2ccccc2c2cccnc21)Cc1ccc(CNC(=O)c2ccc3c(c2)C(=O)N(C2CCC(=O)NC2=O)C3=O)cc1 (stereo not shown) | c-Myc protein (Homo sapiens, UniProt P01106) | 60 to 90% |
| O=C(Cn1c2ccccc2c2cccnc21)NCc1ccc(CNCc2ccc3c(c2)C(=O)N(C2CCC(=O)NC2=O)C3=O)c(F)c1 (stereo not shown) | c-Myc protein (Homo sapiens, UniProt P01106) | 60 to 90% |
| O=C1CCC(N2C(=O)c3ccc(C(=O)NCc4ccc(CN(CCc5cccc6ccccc56)Cc5ccccc5)cc4)cc3C2=O)C(=O)N1 (stereo not shown) | c-Myc protein (Homo sapiens, UniProt P01106) | 60 to 90% |
| O=C(Cc1cccc2ccccc12)NCCc1ccc(NC(=O)c2ccc3c(c2)C(=O)N(C2CCC(=O)NC2=O)C3=O)cc1 (stereo not shown) | c-Myc protein (Homo sapiens, UniProt P01106) | 60 to 90% |

// data source = patent US20240350643A1
